- System: HL-60
- procedure.summary: NCI tumour cell line growth inhibition, 48 h
The source made the active and inactive calls. Cut-off read from the data, not from the text of the source: active = GI50 up to about 1.1 µM and inactive = higher.
Log the outcome using a class from active, inactive

[
  {
    "compound": "N=C(N)N/N=C(\\c1ccc(F)cc1)c1ccc(C(F)(F)F)cc1",
    "category": "active"
  },
  {
    "compound": "O=C1CCC2CCc3cccc4oc1c2c34 (stereo not given)",
    "category": "inactive"
  },
  {
    "compound": "N#Cc1nc(Nc2cccc3ccccc23)sc1N",
    "category": "inactive"
  },
  {
    "compound": "CC(=O)Oc1c2c(c(CC=C(C)C)c3c1C(=O)C1=C[C@@H]4CC5C(C)(C)OC(C/C=C(/C)C(=O)O)(C4=O)[C@@]15O3)OC(C)(CCC=C(C)C)C=C2 (stereo not given in full)",
    "category": "active"
  },
  {
    "compound": "CC(C)(C)[Si](OC1CC(n2cnc3c(N)ncnc32)OC1CO)(c1ccccc1)c1ccccc1 (stereo not given)",
    "category": "inactive"
  },
  {
    "compound": "O=C1c2c(Br)sc(Br)c2C(NC(=O)C(F)(F)F)C1O (stereo not given)",
    "category": "inactive"
  },
  {
    "compound": "CSC1=NC=CCN1C",
    "category": "inactive"
  },
  {
    "compound": "CCCCCCCCCCCCP(=O)(O)OCC(N)C(=O)O (stereo not given)",
    "category": "inactive"
  }
]

query: What did this assay record as the result for `Cc1cc(NS(=O)(=O)c2ccc(Nc3c4ccccc4nc4c(C(=O)N5CCN(CCO)CC5)cccc34)cc2)no1` ?
result: inactive

query: What did this assay record as the result for COC(=O)C12C3C4C5(C(=O)OC)C(C1C35C(=O)N(C(C)C)C(C)C)C42C(=O)N(C(C)C)C(C)C (stereo not given) ?
result: inactive
